This collection of values is drawn from ChEMBL document CHEMBL3352554.

target: Mitogen-activated protein kinase 14 (Homo sapiens); test: Inhibition of p38alpha MAPK (unknown origin) by radiometric assay

| Mol Smiles | Target System | Modifier Sign | IC50 / µM |
| --- | --- | --- | --- |
| CCOP(=O)(CCn1cc(-c2ccc(-c3nc(-c4ccc(F)cc4)c(-c4cc[nH]c(=O)c4)[nH]3)cc2)nn1)OCC | Mitogen-activated protein kinase 14 (Homo sapiens) | > | 100 |
| C#Cc1ccc(-c2nc(-c3ccc(F)cc3)c(-c3cc[nH]c(=O)c3)[nH]2)cc1 | Mitogen-activated protein kinase 14 (Homo sapiens) | = | 9.39 |
| O=c1cc(-c2[nH]c(-c3ccc(O)cc3)nc2-c2ccc(F)cc2)cc[nH]1 | Mitogen-activated protein kinase 14 (Homo sapiens) | = | 4.96 |
| CCOP(=O)(CCn1cc(-c2ccn3c(-c4ccnc(SC)n4)c(-c4ccc(F)cc4)nc3n2)nn1)OCC | Mitogen-activated protein kinase 14 (Homo sapiens) | = | 12 |

----------
molecular target: Mitogen-activated protein kinase 14 (Homo sapiens, UniProt Q16539); test: Inhibition of p38alpha MAPK (unknown origin) by radiometric assay
Sequence (Q16539 whole entry): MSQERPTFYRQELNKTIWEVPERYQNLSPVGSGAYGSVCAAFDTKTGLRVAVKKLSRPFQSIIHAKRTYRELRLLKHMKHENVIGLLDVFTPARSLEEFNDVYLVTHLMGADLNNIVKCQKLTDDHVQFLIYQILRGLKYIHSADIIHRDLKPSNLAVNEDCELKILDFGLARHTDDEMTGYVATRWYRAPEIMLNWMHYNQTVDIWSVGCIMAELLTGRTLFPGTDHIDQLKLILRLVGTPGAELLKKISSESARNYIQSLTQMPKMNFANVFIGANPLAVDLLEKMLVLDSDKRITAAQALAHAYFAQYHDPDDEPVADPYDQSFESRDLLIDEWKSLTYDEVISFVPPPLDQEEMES
pIC50: −log10 of the molar value.
Criterion: pIC50 meeting or surpassing 6. Met: class 1. Not met: class 0.

| Mol Smiles | Assigned Category |
| --- | --- |
| O=c1cc(-c2[nH]c(-c3ccc(-c4cn(CCP(=O)(O)O)nn4)cc3)nc2-c2ccc(F)cc2)cc[nH]1 | class 0 |
| CCOP(=O)(CCn1cc(-c2nc(-c3ccc(F)cc3)c(-c3ccncc3)n2C)nn1)OCC | class 0 |
| CCOC(=O)Cn1cc(-c2ccc(-c3nc(-c4ccc(F)cc4)c(-c4cc[nH]c(=O)c4)[nH]3)cc2)nn1 | class 0 |
| Cn1c(-c2c[nH]nn2)nc(-c2ccc(F)cc2)c1-c1ccncc1 | class 1 |
| C[C@H](Nc1nccc(-c2c(-c3ccc(F)cc3)nc3nc(N)ccn23)n1)c1ccccc1 | class 1 |
| O=C(O)c1cc(-c2nc(-c3ccc(F)cc3)c(-c3cc[nH]c(=O)c3)[nH]2)ccc1O | class 0 |
| CSc1nccc(-c2[nH]c(-c3ccc(O)cc3)nc2-c2ccc(F)cc2)n1 | class 1 |
| Cn1c(-c2cn(-c3ccc(C(=O)O)cc3)nn2)nc(-c2ccc(F)cc2)c1-c1ccncc1 | class 1 |
| C#Cc1ccn2c(-c3ccnc(SC)n3)c(-c3ccc(F)cc3)nc2n1 | class 0 |
| O=c1cc(-c2[nH]c(-c3ccc(-c4nnn[nH]4)cc3)nc2-c2ccc(F)cc2)cc[nH]1 | class 0 |
| C#Cc1ccc(-c2nc(-c3ccc(F)cc3)c(-c3ccnc(SC)n3)[nH]2)cc1 | class 0 |
| CSc1nccc(-c2c(-c3ccc(F)cc3)nc3nc(-c4cn(CC(=O)O)nn4)ccn23)n1 | class 1 |
| CSc1nccc(-c2c(-c3ccc(F)cc3)nc3nc(N)ccn23)n1 | class 1 |
| O=C(O)c1ccc(-c2nc(-c3ccc(F)cc3)c(-c3cc[nH]c(=O)c3)[nH]2)cc1 | class 0 |
| CSc1nccc(-c2c(-c3ccc(F)cc3)nc3nc(-c4cn(CCP(=O)(O)O)nn4)ccn23)n1 | class 0 |
| O=c1cc(-c2[nH]c(-c3ccc(-c4cn(CCO)nn4)cc3)nc2-c2ccc(F)cc2)cc[nH]1 | class 0 |
